Quick reference: Tyrosinase GSH depletion (2 h) of the listed items.
Tested on: tyrosinase
METHOD_NOTES: Tyrosinase mediated GSH depletion assay
Format: biochemical, Mushroom
TEST_PARAMETERS: 100 μM phenolic agent, 200 μM GSH, tyrosinase/O2, 37 °C, 2 h
A complete answer gives the number followed by the unit.

Examples from the recorded data:
O=C(/C=C/c1ccc(O)c(O)c1)O[C@@H]1C[C@](O)(C(=O)O)C[C@@H](O)[C@H]1O [CGA, chlorogenic acid] | 200±5%
O=C(O)/C=C/c1ccc(O)c(O)c1 [CA, caffeic acid] | 200±6%
O=C(O)CCc1ccc(O)cc1 [4-HPP, 4-hydroxypropionic acid] | 42±2%
O=C(/C=C/c1ccc(O)c(O)c1)OCCc1ccccc1 [CAPE, Caffeic Acid Phenylethyl Ester] | 82±6%

Entry O=C(O)CCc1ccc(O)c(O)c1 [DHCA, dihydrocaffeic acid] needs its Tyrosinase GSH depletion (2 h) filled in; supply it.
200±4%

----------
Quick reference: Tyrosinase GSH depletion (2 h) of the listed items.
Tested on: tyrosinase
METHOD_NOTES: Tyrosinase mediated GSH depletion assay
Type: biochemical, Mushroom
TEST_PARAMETERS: 100 μM phenolic agent, 200 μM GSH, tyrosinase/O2, 37 °C, 2 h
Supply the numeric figure in %, leaving out any unit text.

O=C(O)C=Cc1ccc(O)cc1 [4-HCA, 4-hydroxycinnamic acid] | 16
O=C(O)/C=C/c1ccccc1 [CinA, cinnamic acid] | 40

Let us examine a further case.
Entry O=C(O)CCc1ccccc1 [DHCinA, Dihydrocinnamic acid] needs its Tyrosinase GSH depletion (2 h) filled in; supply it.
32
